Test system: MOLT-4 leukemia
Test: NCI-60 one-dose screen, 48 h
Settings: 10 µM
Compounds without any hit were thinned out: in the full panel of roughly 83,000, 20% have a hit. Activity calls are given as the source filed them. How the source made its calls: active means growth percent below 10; inactive means the rest.
Thanks in advance; please answer with one of these: active, inactive

Query: Please state the recorded outcome for this compound: CC(C)=CCc1c2c(c(O)c3c1O[C@]14C(=C[C@@H]5C[C@H]1C(C)(C)O[C@@]4(C/C=C(/C)C(=O)O)C5=O)C3=O)C=CC(C)(C)O2
Reply: active

Query: // return assay outcome for C=C1[C@@H](C)C2[C@H](Cc3ccccc3)NC(=O)[C@]23[C@H](OC(C)=O)/C=C/[C@@](C)(O)C(=O)[C@@H](C)C/C=C/[C@H]3[C@@H]1O (some centres undefined)
Reply: inactive

Query: Lab log entry: CC1=C[C@H]2O[C@@H]3C[C@@H](O)[C@](C)([C@@]2(C)CC1)[C@@]31CO1 — outcome as called in the assay?
Reply: active

Query: Recorded test outcome, item CC1=C2C(=C[C@@](C)(C=O)[C@@H]2O)C(=O)[C@](C)(O)C12CC2
Reply: inactive
